# System: SK-BR-3
# Method Summary: Inhibition of cells growth by colorimetric assay (SRB)
# Recorded Conditions: Homo sapiens, SK-BR-3, 48 h, read-out: SK-BR3 TGI
# Description: This form of the assay employs 96 well cell culture microplates of 9 mm diameter (Faircloth, 1988; Mosmann, 1983). Most of the cell lines are obtained from American Type Culture Collection (ATCC) derived from different human cancer types. […] The values for mean +/− SD of data from triplicate wells are calculated. Some parameters for cellular responses can be calculated: GI=growth inhibition, TGI=total growth inhibition (cytostatic effect) and LC=cell killing (cytotoxic effect).
Parameter threshold = 0.07 µM. Response is YES when IC (TGI) meets or exceeds it, else NO.

{"Molecule": "C=CCN1[C@@H]2c3c(cc(C)c(OC)c3O)C[C@H]1[C@H](C#N)N1C2[C@@H]2SC[C@]3(NCCc4cc(O)c(OC)cc43)C(=O)OC[C@H]1c1c3c(c(C)c(OC(=O)CCCCCCC)c12)OCO3 (stereo partly shown)", "Test Target": "SK-BR-3", "Cat": "YES"}
{"Molecule": "CCCCCCCCCCCCCCCC(=O)NC1CS[C@@H]2c3c(OC(C)=O)c(C)c4c(c3[C@H](COC1=O)N1C2[C@@H]2N[C@@H](Cc3cc(C)c(OC)c(O)c32)[C@@H]1O)OCO4 (stereo partly shown)", "Test Target": "SK-BR-3", "Cat": "YES"}
{"Molecule": "C=CCN1[C@@H]2c3c(cc(C)c(OC)c3O)C[C@H]1[C@H](C#N)N1C2[C@@H]2SC[C@]3(NCCc4c3[nH]c3ccc(C)cc43)C(=O)OC[C@H]1c1c3c(c(C)c(OC(C)=O)c12)OCO3 (stereo partly shown)", "Test Target": "SK-BR-3", "Cat": "YES"}
{"Molecule": "C=CCN1[C@@H]2c3c(cc(C)c(OC)c3O)C[C@H]1[C@H](C#N)N1C2[C@@H]2SC[C@]3(NCCc4cc(OC(=O)OC(C)(C)C)c(OC)cc43)C(=O)OC[C@H]1c1c3c(c(C)c(OC(=O)/C=C/c4ccccc4)c12)OCO3 (stereo partly shown)", "Test Target": "SK-BR-3", "Cat": "YES"}
{"Molecule": "C=CCN1[C@@H]2c3c(cc(C)c(OC)c3O)C[C@H]1[C@H](C#N)N1C2[C@@H]2SC[C@]3(NCCc4cc(O)c(OC)cc43)C(=O)OC[C@H]1c1c3c(c(C)c(OC(=O)/C=C/c4ccccc4)c12)OCO3 (stereo partly shown)", "Test Target": "SK-BR-3", "Cat": "YES"}
{"Molecule": "CCC(=O)NC1CS[C@@H]2c3c(OC(C)=O)c(C)c4c(c3[C@H](COC1=O)N1C2[C@@H]2N[C@@H](Cc3cc(C)c(OC)c(O)c32)[C@@H]1C#N)OCO4 (stereo partly shown)", "Test Target": "SK-BR-3", "Cat": "NO"}
{"Molecule": "COc1c(C)cc2c(c1O)[C@H]1N[C@@H](C2)[C@H](C#N)N2C1[C@@H]1SC[C@]3(NCCc4c3[nH]c3ccc(C)cc43)C(=O)OC[C@H]2c2c3c(c(C)c(OC(C)=O)c21)OCO3 (stereo partly shown)", "Test Target": "SK-BR-3", "Cat": "NO"}

###

# Test system: LNCaP
# Method Summary: Inhibition of cells growth by colorimetric assay (SRB)
# Recorded Conditions: Homo sapiens, LNCaP, 48 h, read-out: LNCAP GI50
Measured Property: GI50 (nM)

{"Compound": "COc1c(C)cc2c(c1O)[C@H]1N[C@@H](C2)[C@H](C#N)N2C1[C@@H]1SC[C@]3(NCCc4c3[nH]c3ccc(O)cc43)C(=O)OC[C@H]2c2c3c(c(C)c(OC(C)=O)c21)OCO3 (stereo partly drawn) [compound 61]", "Measured Property": "GI50", "Value Reported": 1.17}
{"Compound": "C=CCN1[C@@H]2c3c(cc(C)c(OC)c3O)C[C@H]1[C@H](O)N1C2[C@@H]2SC[C@]3(NCCc4cc(O)c(OC)cc43)C(=O)OC[C@H]1c1c3c(c(C)c(OC(C)=O)c12)OCO3 (stereo partly drawn) [compound 67]", "Measured Property": "GI50", "Value Reported": 3}
{"Compound": "COc1ccc2[nH]c3c(c2c1)CCN[C@]31CS[C@@H]2c3c(OC(C)=O)c(C)c4c(c3[C@H](COC1=O)N1C2[C@@H]2N[C@@H](Cc3cc(C)c(OC)c(O)c32)[C@@H]1C#N)OCO4 (stereo partly drawn) [compound 60]", "Measured Property": "GI50", "Value Reported": 0.415}
{"Compound": "COc1c(C)cc2c(c1OC(=O)/C=C/c1ccccc1)[C@H]1N[C@@H](C2)[C@H](O)N2C1[C@@H]1SCC(NC(=O)C(F)(F)F)C(=O)OC[C@H]2c2c3c(c(C)c(OC(C)=O)c21)OCO3 (stereo partly drawn) [compound 40]", "Measured Property": "GI50", "Value Reported": 48.1}
{"Compound": "C=CCN1[C@@H]2c3c(cc(C)c(OC)c3O)C[C@H]1[C@H](C#N)N1C2[C@@H]2SC[C@]3(NCCc4cc(OC(=O)OC(C)(C)C)c(OC)cc43)C(=O)OC[C@H]1c1c3c(c(C)c(OC(=O)CCCCCCC)c12)OCO3 (stereo partly drawn) [compound 48]", "Measured Property": "GI50", "Value Reported": 1670}
{"Compound": "C=CCN1[C@@H]2c3c(cc(C)c(OC)c3O)C[C@H]1[C@H](C#N)N1C2[C@@H]2SC[C@]3(NCCc4cc(O)c(OC)cc43)C(=O)OC[C@H]1c1c3c(c(C)c(OC(=O)/C=C/c4ccccc4)c12)OCO3 (stereo partly drawn) [compound 49]", "Measured Property": "GI50", "Value Reported": 40.5}
{"Compound": "COc1cc2c(cc1O)CCN[C@]21CS[C@@H]2c3c(OC(C)=O)c(C)c4c(c3[C@H](COC1=O)N1[C@@H]2[C@H]2c3c(cc(C)c(OC)c3O)C[C@@H]([C@@H]1O)N2C)OCO4 [Et-743, ecteinascidin 743, reference compound]", "Measured Property": "GI50", "Value Reported": 0.23}
{"Compound": "COc1cc2c(cc1O)CCN[C@]21CS[C@@H]2c3c(OC(C)=O)c(C)c4c(c3[C@H](CNC1=O)N1C2[C@H]2c3c(cc(C)c(OC)c3O)CC([C@@H]1O)N2C)OCO4 (stereo partly drawn) [compound 77]", "Measured Property": "GI50", "Value Reported": 43.5}
{"Compound": "C=CCN1[C@@H]2c3c(cc(C)c(OC)c3O)C[C@H]1[C@H](O)N1C2[C@@H]2SCC(NC(C)=O)C(=O)OC[C@H]1c1c3c(c(C)c(OC(C)=O)c12)OCO3 (stereo partly drawn) [compound 41]", "Measured Property": "GI50", "Value Reported": 0.95}
